Assignment: determine reported Ragweed plant response rating for the given molecules.
- Test system: ragweed
- methodNotes: Test C preemergence
- Format: in vivo, Ambrosia artemisiifolia
- testParameters: 500 g ai/ha, preemergence; 0 to 100 scale (0 no effect, 100 complete control)

In the examples that follow, each entry is paired with its recorded Ragweed plant response rating.
Fill in Ragweed plant response rating for record Cc1ccc(-n2cnc(C(C)(C)C)n2)cc1C(=O)N1CC(C(F)(F)F)Oc2c(Cl)cccc21 (centres unmarked) [Compound 350] 60

Supply Ragweed plant response rating value. Item: Cc1ccc(-n2cnc(C(C)C)n2)cc1C(=O)N1CC(C(F)(F)F)Oc2c(Cl)cccc21 (centres unmarked) [Compound 354] 100

Item Cc1cccc2c1OC(C(F)(F)F)CN2C(=O)c1ccnc(-n2cnc(C(C)(C)C)n2)c1 (centres unmarked) [Compound 319] : provide Ragweed plant response rating 0

Okay, here is my list. What is Ragweed plant response rating for each of these?
1. Cc1ccc(-n2cnc(CC3CC3)n2)cc1C(=O)N1C[C@H](C)Oc2c(Cl)cccc21 [Compound 273]
2. COc1ccc(-n2cncn2)cc1C(=O)N1C[C@H](C)Oc2c(F)cccc21 [Compound 270]

1: 0; 2: 60

---

Please respond with reported Soybean plant response rating for every item in the list.
- Tested on: soybean
- methodNotes: Test C preemergence
- Format: in vivo, Glycine max
- testParameters: 500 g ai/ha, preemergence; 0 to 100 scale (0 no effect, 100 complete control)
- Description: […]
One number for each entry.

Solved cases (6 shown):
Look up and state reported Soybean plant response rating for CCc1ncn(-c2cc(C(=O)N3CC(C(F)(F)F)Oc4c(C)cccc43)ccn2)n1 (stereo not shown) [Compound 318] 100

Output measured Soybean plant response rating for this item: Cc1ccc(-n2cnc(C(C)C)n2)cc1C(=O)N1CC(C(F)(F)F)Oc2c(Cl)cccc21 (single isomer, unassigned) [Compound 291] 100

Given CC(C)c1ncn(-c2ccc(OS(=O)(=O)C(F)(F)F)c(C(=O)N3C[C@H](C)Oc4c(Cl)cccc43)c2)n1 [Compound 339] , respond with its Soybean plant response rating. 0

Note down Soybean plant response rating recorded for CCOC[C@H]1CN(C(=O)c2cc(-n3cnc(C4CCC4)n3)cc3c2OCCO3)c2cccc(Cl)c2O1 [Compound 386] 100

Return reported Soybean plant response rating. Input compound: C[C@H]1CN(C(=O)c2cccc(-n3cnc(C4CC4)n3)c2)c2cccc(Cl)c2O1 [Compound 325] 40

Item CCOC[C@H]1CN(C(=O)c2cc(-n3cnc(CC)n3)cc3c2OCCO3)c2cccc(Cl)c2O1 [Compound 387] : provide Soybean plant response rating 100

Could you now look at the following compound, please?
Identify Soybean plant response rating associated with the compound COC[C@H]1CN(C(=O)c2cc(-n3cnc(C(C)C)n3)ccc2C)c2cccc(Cl)c2O1 [Compound 313] 100

---

Answer each item with its documented Barnyardgrass plant response rating.
- System: barnyardgrass
- methodNotes: Test C preemergence
- Assay type: in vivo, Echinochloa crusgalli
- testParameters: 125 g ai/ha, preemergence; 0 to 100 scale (0 no effect, 100 complete control)

Look over these answered cases.
State, in one line, measured Barnyardgrass plant response rating of CC(C)c1ncn(-c2cc3c(c(C(=O)N4C[C@H](C)Oc5c(Cl)cccc54)c2)OCCCO3)n1 [Compound 158] 60

Return reported Barnyardgrass plant response rating. Input compound: Cc1c(F)cc(-n2cnc(C(C)C)n2)cc1C(=O)N1C[C@H](C)Oc2c(Cl)cccc21 [Compound 151] 90

Look up and report measured Barnyardgrass plant response rating for this entry: Cc1ccc(-n2cnc(C3(C)CCC3)n2)cc1C(=O)N1C[C@H](C)Oc2c(Cl)cccc21 [Compound 167] 90

Give the measured Barnyardgrass plant response rating for CCn1cnc(-c2cccc(C(=O)N3C[C@H](C)Oc4c(C)cccc43)c2)n1 [Compound 165] 0

Switching to the query record.
Please report the measured Barnyardgrass plant response rating for CC(C)c1ncn(-c2cc(OC(F)F)c(OC(F)F)c(C(=O)N3C[C@H](C)Oc4c(Cl)cccc43)c2)n1 [Compound 150] 0
